targetUnderTest: Stat3:3 (Mus musculus, UniProt P42227)
Construct: endogenous in cells; host or cells: NIH3T3/v-Src or EGF-stimulated NIH3T3/hEGFR mouse fibroblasts, nuclear extracts
Sequence (P42227 2-770 limits assumed): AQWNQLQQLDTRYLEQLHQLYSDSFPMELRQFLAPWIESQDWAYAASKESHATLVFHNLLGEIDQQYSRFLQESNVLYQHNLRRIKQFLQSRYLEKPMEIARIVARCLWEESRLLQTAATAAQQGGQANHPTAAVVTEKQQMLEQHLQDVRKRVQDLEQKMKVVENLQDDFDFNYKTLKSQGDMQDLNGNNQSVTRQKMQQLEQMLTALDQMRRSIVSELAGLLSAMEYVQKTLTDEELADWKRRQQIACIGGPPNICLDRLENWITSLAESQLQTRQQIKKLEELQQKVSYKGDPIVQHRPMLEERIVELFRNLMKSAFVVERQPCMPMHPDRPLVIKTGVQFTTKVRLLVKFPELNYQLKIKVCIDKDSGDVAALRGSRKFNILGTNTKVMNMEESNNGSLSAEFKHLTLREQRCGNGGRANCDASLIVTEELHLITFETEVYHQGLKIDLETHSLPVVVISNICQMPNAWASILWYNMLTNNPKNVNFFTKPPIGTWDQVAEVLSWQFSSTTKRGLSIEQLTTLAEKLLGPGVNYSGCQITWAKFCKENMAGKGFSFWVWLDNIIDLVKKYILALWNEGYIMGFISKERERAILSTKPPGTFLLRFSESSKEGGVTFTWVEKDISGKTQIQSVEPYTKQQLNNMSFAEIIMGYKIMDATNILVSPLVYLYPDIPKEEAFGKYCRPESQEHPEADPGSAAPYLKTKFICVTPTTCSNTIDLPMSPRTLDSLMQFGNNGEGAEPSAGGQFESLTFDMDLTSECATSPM
protocolDescription: STATs DNA-binding activity in vitro, EMSA with hSIE probe
quantityMeasured: inhibition of Stat3 DNA-binding activity, in words

{"columns": ["molecule", "result"],
 "data": [
  ["Cc1cc(N=Nc2ccc(-c3ccc(N=Nc4ccc(O)c(C(=O)O)c4)cc3)cc2)c(N)c(N=Nc2cc(C(=O)O)ccc2Cl)c1N.[Na+] [NSC 75912]", "Potent inhibition"],
  ["O=C(O)c1cc(O)c(O)c(OC(=O)c2cc(O)c(O)c(O)c2CNc2ccc3cc(S(=O)(=O)O)cc(S(=O)(=O)O)c3c2)c1 [NSC 42067]", "Potent inhibition"]
]}

---

Recorded IC50 values for a group of compounds are listed next.
targetUnderTest: Stat3:3 (Mus musculus, UniProt P42227)
Construct: endogenous in cells
protocolDescription: STATs DNA-binding activity in vitro, EMSA with hSIE probe
testConditions: Table 4; read-out: IC50 values for the inhibition of STATs DNA-binding activity in vitro, Stat3:3
Numbers only; they are read as µM.

As a guide, the following entries are already answered.
{"columns": ["compound", "targetUnderTest", "resultNumber"],
 "data": [
  ["N#Cc1cc([N+](=O)[O-])ccc1NC(=O)C(=O)Nn1c(=S)[nH]c2ccccc2c1=O [NSC 645885]", "Stat3:3 (Mus musculus, UniProt P42227)", 245],
  ["O=C(O)c1cc(O)c(O)c(OC(=O)c2cc(O)c(O)c(O)c2CNc2ccc3cc(S(=O)(=O)O)cc(S(=O)(=O)O)c3c2)c1 [NSC 42067]", "Stat3:3 (Mus musculus, UniProt P42227)", 65],
  ["CC(CCC(=O)O)(c1ccc(OC(=O)Nc2ccccc2Cl)cc1)c1ccc(OC(=O)Nc2ccccc2Cl)cc1 [NSC 51926]", "Stat3:3 (Mus musculus, UniProt P42227)", 292]
]}

IN: Recall the recorded IC50 for Cc1cc(N=Nc2ccc(-c3ccc(N=Nc4ccc(O)c(C(=O)O)c4)cc3)cc2)c(N)c(N=Nc2cccc(OCC(=O)O)c2)c1N [NSC 75914] with Stat3:3 (Mus musculus, UniProt P42227) and state it.
OUT: 276

IN: Lookup: IC50 / Stat3:3 (Mus musculus, UniProt P42227) / O=C(Nc1cccc(NC(=O)C(=O)O)c1)Oc1ccccc1 [NSC 71906]
OUT: 295

IN: What reported IC50 corresponds to CC(C)NC(=O)c1cc(NC(=O)c2ccc(C(=O)Nc3cc(C(=O)NC(C)C)cc(C4=NCCN4)c3)cc2)cc(C2=NCCN2)c1 [NSC 101595] on Stat3:3 (Mus musculus, UniProt P42227)?
OUT: 275

---

targetUnderTest: Stat1:1 (Mus musculus, UniProt P42225)
Construct: endogenous in cells
Sequence (P42225 2-749 limits assumed): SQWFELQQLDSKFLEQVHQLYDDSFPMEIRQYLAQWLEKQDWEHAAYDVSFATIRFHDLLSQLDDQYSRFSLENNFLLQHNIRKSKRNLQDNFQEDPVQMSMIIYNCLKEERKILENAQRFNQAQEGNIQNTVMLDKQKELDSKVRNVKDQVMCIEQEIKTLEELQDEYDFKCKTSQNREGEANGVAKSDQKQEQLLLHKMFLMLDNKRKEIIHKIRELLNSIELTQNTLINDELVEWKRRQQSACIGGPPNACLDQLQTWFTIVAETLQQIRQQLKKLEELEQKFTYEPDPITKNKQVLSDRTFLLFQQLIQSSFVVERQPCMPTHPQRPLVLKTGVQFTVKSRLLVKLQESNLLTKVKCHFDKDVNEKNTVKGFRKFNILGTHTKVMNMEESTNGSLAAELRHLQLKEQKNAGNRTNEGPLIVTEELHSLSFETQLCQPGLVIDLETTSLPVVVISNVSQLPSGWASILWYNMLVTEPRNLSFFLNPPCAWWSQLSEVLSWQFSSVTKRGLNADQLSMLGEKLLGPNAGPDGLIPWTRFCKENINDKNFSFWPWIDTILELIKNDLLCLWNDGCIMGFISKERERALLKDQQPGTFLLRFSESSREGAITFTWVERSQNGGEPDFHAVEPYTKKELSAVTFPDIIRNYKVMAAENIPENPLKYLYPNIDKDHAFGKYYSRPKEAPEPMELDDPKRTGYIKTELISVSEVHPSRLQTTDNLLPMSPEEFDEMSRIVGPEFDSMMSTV
protocolDescription: STATs DNA-binding activity in vitro, EMSA
testConditions: Table 4; read-out: IC50 values for the inhibition of STATs DNA-binding activity in vitro, Stat1:1
Property: IC50; scope: individual compounds
Number in µM, nothing else.

Here's what some known entries look like.
{"columns": ["compound", "targetUnderTest", "resultUnit", "IC50"],
 "data": [
  ["O=C1C=C(Nc2ccc(S(=O)(=O)Nc3ccccn3)cc2)C(=O)C=C1Nc1ccc(S(=O)(=O)Nc2ccccn2)cc1 [NSC 11421]", "Stat1:1 (Mus musculus, UniProt P42225)", "µM", 105],
  ["O=C(Nc1cccc(NC(=O)C(=O)O)c1)Oc1ccccc1 [NSC 71906]", "Stat1:1 (Mus musculus, UniProt P42225)", "µM", 225],
  ["O=C(/C=C/c1ccccc1)NC(=S)Nc1ccc(C(=O)O)cc1 [NSC 205965]", "Stat1:1 (Mus musculus, UniProt P42225)", "µM", 253],
  ["O=C(O)c1cc(O)c(O)c(OC(=O)c2cc(O)c(O)c(O)c2CNc2ccc3cc(S(=O)(=O)O)cc(S(=O)(=O)O)c3c2)c1 [NSC 42067]", "Stat1:1 (Mus musculus, UniProt P42225)", "µM", 197],
  ["CCOc1cccc2c(NCCCCCCCCNc3c4ccccc4nc4c(OCC)cccc34)c3ccccc3nc12 [NSC 263435]", "Stat1:1 (Mus musculus, UniProt P42225)", "µM", 50]
]}

Continue with the compound presented below.
IN: What does the data say about its IC50? Entry: CC(CCC(=O)O)(c1ccc(OC(=O)Nc2ccccc2Cl)cc1)c1ccc(OC(=O)Nc2ccccc2Cl)cc1 [NSC 51926]
OUT: 300

---

targetUnderTest: Stat5:5
protocolDescription: STATs DNA-binding activity in vitro, EMSA with MGFe probe
Set-up: species or system mouse
testConditions: Table 4; read-out: IC50 values for the inhibition of STATs DNA-binding activity in vitro, Stat5:5
quantityMeasured: IC50 (µM)
Answer with a number only, understood to be in µM.

Record excerpt, results attached:
{"columns": ["compound", "IC50, µM"],
 "data": [
  ["N#Cc1cc([N+](=O)[O-])ccc1NC(=O)C(=O)Nn1c(=S)[nH]c2ccccc2c1=O [NSC 645885]", 250],
  ["O=C(O)c1cc(O)c(O)c(OC(=O)c2cc(O)c(O)c(O)c2CNc2ccc3cc(S(=O)(=O)O)cc(S(=O)(=O)O)c3c2)c1 [NSC 42067]", 88],
  ["CCOc1cccc2c(NCCCCCCCCNc3c4ccccc4nc4c(OCC)cccc34)c3ccccc3nc12 [NSC 263435]", 25]
]}

Please examine the following record next.
IN: Lookup: IC50 / Stat5:5 / C=CC1=C(C)/C(=C/c2[nH]c(Cc3[nH]c(/C=C4\NC(=O)C(C)=C4C=C)c(C)c3CCC(=O)O)c(CCC(=O)O)c2C)NC1=O [NSC 26685]
OUT: 125

---

targetUnderTest: STAT3 (Mus musculus, UniProt P42227)
protocolDescription: Inhibition of STAT3 dimerization, EMSA assay
Format: binding
Design: endogenous in cells; host or cells: nuclear extracts per the general EMSA method
pIC50: −log10 of the molar value.
# Lookup of reported pIC50 keyed by entry

Record excerpt, results attached:
{"columns": ["molecule", "pIC50"],
 "data": [
  ["O=C(CC(CNS(=O)(=O)c1ccc(Oc2ccccc2)cc1)c1ccccc1)Nc1ccc(C(=O)O)cc1 (centres unmarked)", "< 3.30"],
  ["O=C(CCc1ccccc1)Nc1ccc(C(=O)O)c(O)c1", "< 3.30"],
  ["Cc1ccc(S(=O)(=O)NCC(CC(=O)Nc2ccccc2)c2ccc(Cl)cc2)cc1 (centres unmarked)", "> 3.30"],
  ["O=C(CCc1ccccc1)Nc1ccc(C(=O)O)cc1", "< 3.30"]
]}

IN: For the molecule CCOC(=O)c1ccc(NC(=O)CCc2ccc3ccccc3c2)cc1 , what pIC50 is on record?
OUT: < 3.30

IN: Param item = O=C(CNS(=O)(=O)c1ccc(-c2ccccc2)cc1)Nc1ccc(C(=O)O)cc1 ; retrieve measured pIC50.
OUT: < 3.30

IN: Looking for the measured pIC50 of O=C(CCS(=O)(=O)c1ccccc1)Nc1ccc(C(=O)O)c(O)c1 , can you help?
OUT: > 3.30

IN: For the molecule shown here, O=C(CNS(=O)(=O)c1ccc(-c2ccccc2)cc1)Nc1ccc(S(=O)(=O)O)cc1 , give the reported pIC50.
OUT: < 3.30

Data credit: patent US9604923B2
